- Test target: human TrkA (Homo sapiens (Human))
- Sequence (P04629 440-796): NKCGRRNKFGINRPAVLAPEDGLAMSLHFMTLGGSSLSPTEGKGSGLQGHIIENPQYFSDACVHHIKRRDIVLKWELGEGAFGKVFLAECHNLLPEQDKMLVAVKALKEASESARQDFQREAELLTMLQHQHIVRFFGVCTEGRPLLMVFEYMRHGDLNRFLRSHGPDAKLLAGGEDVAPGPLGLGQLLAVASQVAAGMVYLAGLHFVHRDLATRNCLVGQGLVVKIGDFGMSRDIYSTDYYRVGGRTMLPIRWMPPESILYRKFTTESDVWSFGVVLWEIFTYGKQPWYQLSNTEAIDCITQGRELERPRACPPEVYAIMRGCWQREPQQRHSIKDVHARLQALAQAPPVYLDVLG
- Measurement description: Human TrkA inhibition assay (Test Example 2)
- Assay type: biochemical
- Experimental setup: Table 155, human TrkA inhibition; read-out: IC50
Reported metric: IC50

Example entries and their recorded answers appear below.
Can you look up the measured IC50 of COCCN1C[C@@H](NC(=O)Nc2c(C)c(N3CC(c4ccc(F)cc4)C3)nn2-c2ccccc2)[C@H](c2cnc(F)c(F)c2)O1 (racemic) for me?
< 100 nM

Can you look up the measured IC50 of COCCN1C[C@@H](NC(=O)Nc2c(C)c(-c3cnc4c(c3)NC(=O)CN4)nn2-c2ccccc2)[C@H](c2ccnc(F)c2)O1 (racemic) for me?
< 100 nM

Now for the molecule whose IC50 we want.
Can you look up the measured IC50 of COCCN1C[C@@H](NC(=O)Nc2c(C)c(-c3cnc4c(c3)CN(C(C)=O)CC4)nn2-c2ccccc2)[C@H](c2ccnc(F)c2)O1 (racemic) for me?
< 100 nM
